Record form. Attribute: protein stability index. Fill in for each entry.
B1: LMNB1 (parent)
chain: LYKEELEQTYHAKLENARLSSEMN

- Variants of: B1
- Assay: protein stability index of a GFP-peptide fusion (GPS, HEK-293T) (PSI 1-6); higher = more stable;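 further: lentivirally expressed fusions sorted by FACS into six bins by GFP to DsRed ratio, PSI derived from sequencing read proportions per bin multiplied by bin number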
- Condition notes: c terminus: a fixed tail appended
Lab note: write the figure by itself, no unit.

What value of measured protein stability index is listed for K3T ?
2.81

What value of measured protein stability index is listed for Y2A ?
2.91

What value of measured protein stability index is listed for T9N ?
3.88

What value of measured protein stability index is listed for E7P ?
3.35

What value of measured protein stability index is listed for E7V ?
3.05

What value of measured protein stability index is listed for E4R ?
2.51

What value of measured protein stability index is listed for E7D ?
3.52

What value of measured protein stability index is listed for Y10L ?
4.23

What value of measured protein stability index is listed for M23Q ?
3.04

What value of measured protein stability index is listed for E7F ?
1.83

What value of measured protein stability index is listed for E15N ?
2.71

What value of measured protein stability index is listed for E15G ?
2.65

What value of measured protein stability index is listed for K3M ?
1.7

What value of measured protein stability index is listed for N16E ?
4

What value of measured protein stability index is listed for E7K ?
2.77

What value of measured protein stability index is listed for L1W ?
2.21

What value of measured protein stability index is listed for Y10Q ?
4.79

What value of measured protein stability index is listed for L1T ?
2.85

What value of measured protein stability index is listed for L14G ?
4.36

What value of measured protein stability index is listed for L19I ?
2.39

What value of measured protein stability index is listed for S20H ?
2.73

What value of measured protein stability index is listed for A17N ?
3.86

The origin of these recorded values is the supplement of paper PMC10567573.
